Listed next: entries and their corresponding EC50.
# TARGET_ENTITY: P2Y purinoceptor 14 (Homo sapiens, UniProt Q15391)
# Sequence (Q15391 whole entry): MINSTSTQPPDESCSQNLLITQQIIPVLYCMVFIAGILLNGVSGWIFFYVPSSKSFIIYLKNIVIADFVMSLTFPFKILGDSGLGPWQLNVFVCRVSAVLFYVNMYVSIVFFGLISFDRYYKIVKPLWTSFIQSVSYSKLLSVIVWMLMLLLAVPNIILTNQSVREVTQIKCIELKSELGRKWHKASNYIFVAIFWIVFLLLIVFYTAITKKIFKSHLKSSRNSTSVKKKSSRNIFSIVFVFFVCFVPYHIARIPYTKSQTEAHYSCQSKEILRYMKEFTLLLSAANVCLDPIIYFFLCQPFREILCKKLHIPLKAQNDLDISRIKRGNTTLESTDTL
# RUN_DESCRIPTION: Agonist activity at human P2Y14 receptor expressed in HEK293 cells coexpressing phospholipase C-activating Gi protein cells assessed as inhibition of forskolin induced [3H]cAMP production
# Type: functional, cell-based
# MEASUREMENT_CONTEXT: read-out: EC50

Here are 8 compounds together with their reported answers.
COMPOUND	TARGET_ENTITY	METRIC_NAME	RESULT_VALUE
C#CCCOP(=O)(O)OP(=O)(O)OC[C@H]1O[C@@H](n2ccc(=O)[nH]c2=O)[C@H](O)[C@@H]1O	P2Y purinoceptor 14 (Homo sapiens, UniProt Q15391)	EC50	480 nM
O=c1ccn([C@@H]2O[C@H](COP(=O)(O)OP(=O)(O)Oc3ccccc3)[C@@H](O)[C@H]2O)c(=O)[nH]1	P2Y purinoceptor 14 (Homo sapiens, UniProt Q15391)	EC50	768 nM
COP(=O)(O)OP(=O)(O)OC[C@H]1O[C@@H](n2ccc(=O)[nH]c2=S)[C@H](O)[C@@H]1O	P2Y purinoceptor 14 (Homo sapiens, UniProt Q15391)	EC50	56 nM
O=c1ccn([C@@H]2O[C@H](COP(=O)(O)OP(=O)(O)O)[C@@H](O)[C@H]2O)c(=S)[nH]1	P2Y purinoceptor 14 (Homo sapiens, UniProt Q15391)	EC50	1.92 nM
COP(=O)(O)OP(=O)(O)OC[C@H]1O[C@@H](n2ccc(=O)[nH]c2=O)[C@H](O)[C@@H]1O	P2Y purinoceptor 14 (Homo sapiens, UniProt Q15391)	EC50	2730 nM
COc1ccc(OP(=O)(O)OP(=O)(O)OC[C@H]2O[C@@H](n3ccc(=O)[nH]c3=O)[C@H](O)[C@@H]2O)cc1	P2Y purinoceptor 14 (Homo sapiens, UniProt Q15391)	EC50	1900 nM
O=c1ccn([C@@H]2O[C@H](COP(=O)(O)OP(=O)(O)Oc3ccc([N+](=O)[O-])cc3)[C@@H](O)[C@H]2O)c(=O)[nH]1	P2Y purinoceptor 14 (Homo sapiens, UniProt Q15391)	EC50	1490 nM
CC(C)(C)OP(=O)(O)OP(=O)(O)OC[C@H]1O[C@@H](n2ccc(=O)[nH]c2=O)[C@H](O)[C@@H]1O	P2Y purinoceptor 14 (Homo sapiens, UniProt Q15391)	EC50	252 nM

Documented EC50 of N#CCCOP(=O)(O)OP(=O)(O)OC[C@H]1O[C@@H](n2ccc(=O)[nH]c2=O)[C@H](O)[C@@H]1O : 7460 nM

Documented EC50 of CO/N=c1/ccn([C@@H]2O[C@H](COP(=O)(O)OP(=O)(O)O)[C@@H](O)[C@H]2O)c(=O)[nH]1 : 3320 nM

Documented EC50 of O=c1[nH]c(=S)ccn1[C@@H]1O[C@H](COP(=O)(O)OP(=O)(O)O[C@H]2O[C@H](CO)[C@@H](O)[C@H](O)[C@H]2O)[C@@H](O)[C@H]1O : 11 nM

Documented EC50 of CC(C)(C)OP(=O)(O)OP(=O)(O)OC[C@H]1O[C@@H](n2ccc(=O)[nH]c2=S)[C@H](O)[C@@H]1O : 32 nM

Documented EC50 of O=c1ccn([C@@H]2O[C@H](COP(=O)(O)OP(=O)(O)Oc3cccc(Cl)c3)[C@@H](O)[C@H]2O)c(=O)[nH]1 : 1800 nM

Documented EC50 of O=c1ccn([C@@H]2O[C@H](COP(=O)(O)OP(=O)(O)OC3CCCCC3)[C@@H](O)[C@H]2O)c(=O)[nH]1 : 5160 nM

Documented EC50 of O=c1ccn([C@@H]2O[C@H](COP(=O)(O)CP(=O)(O)O)[C@@H](O)[C@H]2O)c(=O)[nH]1 : 11 nM

Documented EC50 of O=c1ccn([C@@H]2O[C@H](COP(=O)(O)CP(=O)(O)O)[C@@H](O)[C@H]2O)c(=S)[nH]1 : 0.92 nM
